Where these numbers come from: ChEMBL document CHEMBL1151869

Assay: AUC (0 to infinity) in rat at 3 mg/kg, po
Type: ADME, organism-based
Set-up: dose 3 mg/kg, route oral, time infinity
Details: plasma
Endpoint Name: AUC(0-inf) (µM·h)
Return type: number; implicit unit µM·h.

Reported AUC(0-inf), compound O=C(Nc1nccs1)c1nc(Sc2nnc[nH]2)ccc1Sc1ccc(F)cc1 : ____
3.3

====

Assay: Volume of distribution at steady state in rat at 1 mg/kg, iv
Type: ADME, organism-based
Parameters: dose 1 mg/kg, route intravenous
Conditions: in vivo, read-out: Vdss
Endpoint Name: Vd (L/kg)
Return type: number; implicit unit L/kg.

Reported Vd, compound O=C(Nc1nccs1)c1nc(Sc2nnc[nH]2)ccc1Sc1ccc(F)cc1 : ____
0.5
